- condition parameters: in ethyl acetate, 283.15 K
quantity measured: solubility (mole fraction)

Query: Identify solubility (mole fraction) associated with the compound "COc1cc2c(cc1OC)C(=O)CC2"
Result: 0.0389

* * *

- condition parameters: in n-butyl acetate, 323.15 K
quantity measured: solubility (mole fraction)
# respond with the number and nothing more

Query: Supply recorded solubility (mole fraction) for "COc1cc2c(cc1OC)C(=O)CC2" here.
Result: 0.0897

* * *

- condition parameters: in ethyl acetate, 318.15 K
quantity measured: solubility (mole fraction)
Lab note: write the figure by itself, no unit.

Query: Supply reported solubility (mole fraction) belonging to this compound: "COc1cc2c(cc1OC)C(=O)CC2"
Result: 0.147
